experiment: Redox potential of cross linking suppressors; assay type: physicochemical
Parameter: Redox potential (mV)

Respond only with Redox potential (mV) recorded for CNC(=S)NC −40 mV

Respond only with Redox potential (mV) recorded for S [Sodium hydrosulfide] −620 mV

Respond only with Redox potential (mV) recorded for O=S([O-])O.[Na+] [Sodium bisulfite] −127 mV

Respond only with Redox potential (mV) recorded for O=S([O-])([O-])=S.[Na+].[Na+] [Sodium thiosulfate] +40 mV
